assay: Molar absorptivity ε of acid and base forms of reagents at 570 nm and 445 nm; assay type: physicochemical; details: acid form, 570 nm
readoutLabel: ε at 570 nm (λ2), Acid

smilesrepr=O=S1(=O)OC(c2cc(Br)c(O)c(Br)c2)(c2cc(Br)c(O)c(Br)c2)c2ccccc21 readoutlabel="ε at 570 nm (λ2), Acid" reportedresult="378 M⁻¹ cm⁻¹"
smilesrepr=O=S1(=O)OC(c2ccc(O)c(Cl)c2)(c2ccc(O)c(Cl)c2)c2ccccc21 readoutlabel="ε at 570 nm (λ2), Acid" reportedresult="58 M⁻¹ cm⁻¹"
